# Tested on: Clone A cells (HCV genotype 1b replicon in Huh-7)
# test_summary: HCV replicon 3-day assay, HCV RNA by TaqMan RT-PCR
# Assay type: cell-based, Hepatitis C virus
# conditions: Hepatitis C virus, Huh-7; hepatoma cells containing a subgenomic genotype 1b HCV replicon; read-out: EC50
# Procedure: The level of HCV RNA from cultures was expressed as % HCV RNA relative to control. Each point represents an average of four replicates. […] The levels of HCV RNA were determined using a quantitative TAQMAN® RT-PCR (PE Applied Biosystems, Foster City, Calif.). Drug susceptibility of the replicon-containing cells to various compounds was evaluated as described previously (Howe et al. (2004) Antimicrobial Agents Chem. 48:4813-21). […] The RNA sample was sent to National Genetics Institute to quantify HCV RNA. […]
measurement_name: EC50 (nM)

• CNC(=O)c1c(-c2ccc(F)cc2)oc2cc(N(CCO)S(C)(=O)=O)c(C3CC3)cc12 = 9

// provenance: patent US20080182895A1
